subject.of.test: Voltage-gated inwardly rectifying potassium channel KCNH2 (Homo sapiens)
protocol.details: qHTS Assay for Small Molecule Inhibitors of the Human hERG Channel Activity (AID 588834);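 note: lower thallium flux fluorescence means stronger hERG block; nearly all actives have a fitted effect of over 50% in size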
recorded.conditions: U2OS BacMam hERG, FluxOR thallium flux fluorescence; series mostly up to 46.1 µM
Records with an inconclusive call do not appear. Active and inactive are the calls of the source. Calls come from the whole dose curve; as a rule, active = well fitted inhibition curve with a large enough effect; inconclusive = small, poorly fitted or top-dose-only effect; inactive = flat fitted curve, though single readings scatter. Where a SMILES comes first, the peptide text is derived from it. Bridges are numbered along the chain shown (N, C = ends). [ ]: non-standard residue; d: D form. The star is where a group is joined. ξ: configuration not given here. d(aThr) = C[C@@H](O)[C@@H](N)C(=O)O; ξThr(3R) = C[C@@H](O)C(N)C(=O)O; X3 = CC[C@@H](C)CCCCC(=O)*; dDab = NCC[C@@H](N)C(=O)O
The reply should name one outcome from yes (active), no (inactive)

| compound | assigned.label |
| --- | --- |
| COc1ccc2c(c1)OC(C)(C)C(c1ccccc1)C2c1ccc(OCCN2CCCC2)cc1 (centres undefined) | yes |
| CC[C@H]1NC(=O)[C@@H](NC(=O)c2ncccc2O)[C@@H](C)OC(=O)[C@H](c2ccccc2)NC(=O)[C@@H]2CC(=O)CCN2C(=O)[C@H](Cc2ccccc2)N(C)C(=O)[C@@H]2CCCN2C1=O | no |
| CC(=O)[C@@]1(O)CC[C@H]2[C@@H]3C=C(Cl)C4=CC(=O)[C@@H]5C[C@@H]5[C@]4(C)[C@H]3CC[C@@]21C | no |
| CC[C@@H](C)CCCCC(=O)N[C@H](CCN)C(=O)N[C@@H](C(=O)N[C@H](CCN)C(=O)N[C@@H]1CCNC(=O)C([C@@H](C)O)NC(=O)[C@@H](CCN)NC(=O)[C@@H](CCN)NC(=O)[C@@H](CC(C)C)NC(=O)[C@@H](Cc2ccccc2)NC(=O)[C@@H](CCN)NC1=O)[C@@H](C)O (stereo partly drawn) (X3-[dDab][d(aThr)][dDab][dDab][dDab][dF][dL][dDab][dDab][ξThr(3R)]; lactam 4-C) | no |

Call for entry `Cc1cc(-c2ccc(N=Nc3c(S(=O)(=O)O)cc4cc(S(=O)(=O)O)cc(N)c4c3O)c(C)c2)ccc1N=Nc1c(S(=O)(=O)O)cc2cc(S(=O)(=O)O)cc(N)c2c1O` :
no

Call for entry `OCCCNc1ccccc1` :
no

The reported measurements were obtained from PubChem BioAssay (NCATS).
